experimental.details: Plasma pharmacokinetics after single ascending doses (SAD), phase 1
Assay type: in vivo, human (healthy adult participants)
measurement.context: human, plasma, single 1-h IV infusion 10 mg, volume of distribution during terminal phase, n = 6, arithmetic mean ± SD, read-out: VZ
Where a SMILES comes first, the peptide text is derived from it. Bridges are numbered along the chain shown (N, C = ends). [ ]: non-standard residue; d: D form. The star is where a group is joined. X1 = O=C(c1ccc(Cl)cc1Cl)*; Dab = NCC[C@H](N)C(=O)O; Abu = CC[C@H](N)C(=O)O; Dap = NC[C@H](N)C(=O)O
measured.metric: Vd (L)
Give a bare numeral; the unit L is implied.

Record CC[C@@H]1NC(=O)[C@@H](CC(C)C)NC(=O)[C@H](CCN)NC(=O)[C@@H](NC(=O)[C@H](CN)NC(=O)[C@@H](NC(=O)[C@H](CCN)NC(=O)c2ccc(Cl)cc2Cl)[C@@H](C)O)CCNC(=O)[C@H]([C@@H](C)O)NC(=O)[C@H](CCN)NC(=O)[C@H](CCN)NC1=O [BRII-693] (X1-[Dab]T[Dap][Dab][Dab][dL][Abu][Dab][Dab]T; lactam 4-C; N-terminus assumed) , field Vd: 14.1

###

experimental.details: Plasma pharmacokinetics after multiple ascending doses (MAD), phase 1
Format: in vivo, human (healthy adult participants)
measurement.context: human, plasma, iv, 150 mg, First q6h dose (day 1), 14-day MAD 150 mg q6h × 14, non-Chinese, n = 10, arithmetic mean ± SD
Protocol: Participants were discharged on day 11. Plasma and urine PK parameters were summarized for each cohort using descriptive statistics. Analyses using linear models were performed to assess dose proportionality (both single-dose cohorts 1–7 and multiple-dose cohorts 8–10). Dose-linearity of Cmax and AUC across the dose range was assessed by fitting the power model with ln-transformed parameter as response variables and ln-transformed dose (continuous variable) as a fixed effect. […]
Where a SMILES comes first, the peptide text is derived from it. Bridges are numbered along the chain shown (N, C = ends). [ ]: non-standard residue; d: D form. The star is where a group is joined. X1 = O=C(c1ccc(Cl)cc1Cl)*; Dab = NCC[C@H](N)C(=O)O; Abu = CC[C@H](N)C(=O)O; Dap = NC[C@H](N)C(=O)O
measured.metric: clearance
Write the numeric value and append its unit.

Record CC[C@@H]1NC(=O)[C@@H](CC(C)C)NC(=O)[C@H](CCN)NC(=O)[C@@H](NC(=O)[C@H](CN)NC(=O)[C@@H](NC(=O)[C@H](CCN)NC(=O)c2ccc(Cl)cc2Cl)[C@@H](C)O)CCNC(=O)[C@H]([C@@H](C)O)NC(=O)[C@H](CCN)NC(=O)[C@H](CCN)NC1=O [BRII-693] (X1-[Dab]T[Dap][Dab][Dab][dL][Abu][Dab][Dab]T; lactam 4-C; N-terminus assumed) , field clearance: 80 mL/min

###

experimental.details: Plasma pharmacokinetics after single ascending doses (SAD), phase 1
Format: in vivo, human (healthy adult participants)
measurement.context: human, single 1-h IV infusion 10 mg, plasma, n = 6, arithmetic mean ± SD
Where a SMILES comes first, the peptide text is derived from it. Bridges are numbered along the chain shown (N, C = ends). [ ]: non-standard residue; d: D form. The star is where a group is joined. X1 = O=C(c1ccc(Cl)cc1Cl)*; Dab = NCC[C@H](N)C(=O)O; Abu = CC[C@H](N)C(=O)O; Dap = NC[C@H](N)C(=O)O
measured.metric: Cmax

Record CC[C@@H]1NC(=O)[C@@H](CC(C)C)NC(=O)[C@H](CCN)NC(=O)[C@@H](NC(=O)[C@H](CN)NC(=O)[C@@H](NC(=O)[C@H](CCN)NC(=O)c2ccc(Cl)cc2Cl)[C@@H](C)O)CCNC(=O)[C@H]([C@@H](C)O)NC(=O)[C@H](CCN)NC(=O)[C@H](CCN)NC1=O [BRII-693] (X1-[Dab]T[Dap][Dab][Dab][dL][Abu][Dab][Dab]T; lactam 4-C; N-terminus assumed) , field Cmax: 770 ng/mL

###

experimental.details: Plasma pharmacokinetics after multiple ascending doses (MAD), phase 1
Type: in vivo, human (healthy adult participants)
measurement.context: human, plasma, iv, 100 mg, Last q6h dose (day 9), 7-day MAD 100 mg q6h × 7, n = 6, arithmetic mean ± SD
Where a SMILES comes first, the peptide text is derived from it. Bridges are numbered along the chain shown (N, C = ends). [ ]: non-standard residue; d: D form. The star is where a group is joined. X1 = O=C(c1ccc(Cl)cc1Cl)*; Dab = NCC[C@H](N)C(=O)O; Abu = CC[C@H](N)C(=O)O; Dap = NC[C@H](N)C(=O)O
measured.metric: clearance (mL/min)
Give a bare numeral; the unit mL/min is implied.

Record CC[C@@H]1NC(=O)[C@@H](CC(C)C)NC(=O)[C@H](CCN)NC(=O)[C@@H](NC(=O)[C@H](CN)NC(=O)[C@@H](NC(=O)[C@H](CCN)NC(=O)c2ccc(Cl)cc2Cl)[C@@H](C)O)CCNC(=O)[C@H]([C@@H](C)O)NC(=O)[C@H](CCN)NC(=O)[C@H](CCN)NC1=O [BRII-693] (X1-[Dab]T[Dap][Dab][Dab][dL][Abu][Dab][Dab]T; lactam 4-C; N-terminus assumed) , field clearance: 59.5

###

experimental.details: Plasma pharmacokinetics after multiple ascending doses (MAD), phase 1
Format: in vivo, human (healthy adult participants)
measurement.context: human, plasma, iv, 200 mg, Last q6h dose (day 9), 7-day MAD 200 mg q6h × 7, plasma, n = 5, arithmetic mean ± SD
Where a SMILES comes first, the peptide text is derived from it. Bridges are numbered along the chain shown (N, C = ends). [ ]: non-standard residue; d: D form. The star is where a group is joined. X1 = O=C(c1ccc(Cl)cc1Cl)*; Dab = NCC[C@H](N)C(=O)O; Abu = CC[C@H](N)C(=O)O; Dap = NC[C@H](N)C(=O)O
measured.metric: Cmax (ng/mL)
Give a bare numeral; the unit ng/mL is implied.

Record CC[C@@H]1NC(=O)[C@@H](CC(C)C)NC(=O)[C@H](CCN)NC(=O)[C@@H](NC(=O)[C@H](CN)NC(=O)[C@@H](NC(=O)[C@H](CCN)NC(=O)c2ccc(Cl)cc2Cl)[C@@H](C)O)CCNC(=O)[C@H]([C@@H](C)O)NC(=O)[C@H](CCN)NC(=O)[C@H](CCN)NC1=O [BRII-693] (X1-[Dab]T[Dap][Dab][Dab][dL][Abu][Dab][Dab]T; lactam 4-C; N-terminus assumed) , field Cmax: 18300

###

experimental.details: Plasma pharmacokinetics after multiple ascending doses (MAD), phase 1
Type: in vivo, human (healthy adult participants)
measurement.context: human, plasma, iv, 150 mg, First q6h dose (day 1), 14-day MAD 150 mg q6h × 14, Chinese, n = 10, arithmetic mean ± SD; read-out: AUC0-6h
Where a SMILES comes first, the peptide text is derived from it. Bridges are numbered along the chain shown (N, C = ends). [ ]: non-standard residue; d: D form. The star is where a group is joined. X1 = O=C(c1ccc(Cl)cc1Cl)*; Dab = NCC[C@H](N)C(=O)O; Abu = CC[C@H](N)C(=O)O; Dap = NC[C@H](N)C(=O)O
measured.metric: AUC(0-t) (µg·h/mL)
Give a bare numeral; the unit µg·h/mL is implied.

Record CC[C@@H]1NC(=O)[C@@H](CC(C)C)NC(=O)[C@H](CCN)NC(=O)[C@@H](NC(=O)[C@H](CN)NC(=O)[C@@H](NC(=O)[C@H](CCN)NC(=O)c2ccc(Cl)cc2Cl)[C@@H](C)O)CCNC(=O)[C@H]([C@@H](C)O)NC(=O)[C@H](CCN)NC(=O)[C@H](CCN)NC1=O [BRII-693] (X1-[Dab]T[Dap][Dab][Dab][dL][Abu][Dab][Dab]T; lactam 4-C; N-terminus assumed) , field AUC(0-t): 27.3

###

experimental.details: Plasma pharmacokinetics after single ascending doses (SAD), phase 1
Format: in vivo, human (healthy adult participants)
measurement.context: human, plasma, single 1-h IV infusion 100 mg, volume of distribution during terminal phase, n = 6, arithmetic mean ± SD, read-out: VZ
Where a SMILES comes first, the peptide text is derived from it. Bridges are numbered along the chain shown (N, C = ends). [ ]: non-standard residue; d: D form. The star is where a group is joined. X1 = O=C(c1ccc(Cl)cc1Cl)*; Dab = NCC[C@H](N)C(=O)O; Abu = CC[C@H](N)C(=O)O; Dap = NC[C@H](N)C(=O)O
measured.metric: Vd

Record CC[C@@H]1NC(=O)[C@@H](CC(C)C)NC(=O)[C@H](CCN)NC(=O)[C@@H](NC(=O)[C@H](CN)NC(=O)[C@@H](NC(=O)[C@H](CCN)NC(=O)c2ccc(Cl)cc2Cl)[C@@H](C)O)CCNC(=O)[C@H]([C@@H](C)O)NC(=O)[C@H](CCN)NC(=O)[C@H](CCN)NC1=O [BRII-693] (X1-[Dab]T[Dap][Dab][Dab][dL][Abu][Dab][Dab]T; lactam 4-C; N-terminus assumed) , field Vd: 21.8 L

FYI, the data here is from paper PMC11784026.
